- test.description: Cytotoxicity against African green monkey Vero cells
- Format: toxicity, cell-based
- experimental.conditions: chlorocebus sabaeus
measure: CC50

Solved entries:
molecule	CC50
O=C1C=C(CSC(=S)NCc2cccnc2)C2C=CC=CC2N1 (stereo not drawn)	1270 nM
S=C(NCc1cccnc1)SCc1ncccn1	5210 nM

Which CC50 value belongs to Cc1cccc2nc(CSC(=S)NCc3cccnc3)cn12 ?
1940 nM

Now this one: S=C(NCc1cccnc1)SCc1cccc2ccccc12
870 nM

Now this one: Cn1ccnc1CSC(=S)NCc1cccnc1
3030 nM

Now this one: S=C(NCc1cccnc1)SCn1nnc2ccccc21
690 nM

Now this one: S=C(NCc1cccnc1)SCc1cccnc1
2650 nM

Now this one: S=C(NCc1cccnc1)SCc1cscn1
2980 nM

====

pEC50 listing for selected compounds.
- Test system: SARS-CoV-2
- test.description: Antiviral activity against SARS-CoV-2
- Assay type: functional, organism-based
- experimental.conditions: Severe acute respiratory syndrome coronavirus 2
# pEC50: negative log10 of molar concentration; output just the value

smiles.repr	target.or.test.system	pEC50
CC(C)(C)[C@H](NC(=O)C(F)(F)F)C(=O)N1CC2(C[C@H]1C(=O)N[C@H](C#N)C[C@@H]1CCNC1=O)SCCS2	SARS-CoV-2	7.47

// moving on: another record for pEC50
Which pEC50 value belongs to O=C(NC1CCCC1)C(=O)[C@H](C[C@@H]1CCNC1=O)NC(=O)[C@@H]1[C@H]2CCC[C@H]2CN1C(=O)[C@@H](NC(=O)C(F)(F)F)C1CCCCC1 ?
7.30
